Tested on: U251 CNS
Assay: NCI-60 one-dose screen, 48 h (100 = growth as untreated, 0 = no growth, -100 = all killed)
Details: 10 µM unless noted
About 83,000 compounds went through this panel and 20% of them were active in at least one assay; those are over-represented in the sample as a whole.
Classify on growth using low bin: < 20%; mid bin: ≥ 20% and < 60%; high bin: ≥ 60%

| Molecule | Class assignment |
| --- | --- |
| O=[N+]([O-])c1ccc(S(=O)(=O)N2CCN(C3=NS(=O)(=O)c4ccccc4N3c3ccccc3)CC2)cc1 | high bin |

Now for another entry.
-- ask Band for the recorded growth of O=C(Cn1c(-c2ccc([N+](=O)[O-])cc2)nc2ccccc21)NNC(=O)c1cccnc1 ?
-- reply high bin
